Overview of recorded IC50 for various molecules
subject.of.test: Human full-length SHP2 recombinant protein (Homo sapiens (Human), UniProt Q06124)
Sequence (Q06124 whole entry): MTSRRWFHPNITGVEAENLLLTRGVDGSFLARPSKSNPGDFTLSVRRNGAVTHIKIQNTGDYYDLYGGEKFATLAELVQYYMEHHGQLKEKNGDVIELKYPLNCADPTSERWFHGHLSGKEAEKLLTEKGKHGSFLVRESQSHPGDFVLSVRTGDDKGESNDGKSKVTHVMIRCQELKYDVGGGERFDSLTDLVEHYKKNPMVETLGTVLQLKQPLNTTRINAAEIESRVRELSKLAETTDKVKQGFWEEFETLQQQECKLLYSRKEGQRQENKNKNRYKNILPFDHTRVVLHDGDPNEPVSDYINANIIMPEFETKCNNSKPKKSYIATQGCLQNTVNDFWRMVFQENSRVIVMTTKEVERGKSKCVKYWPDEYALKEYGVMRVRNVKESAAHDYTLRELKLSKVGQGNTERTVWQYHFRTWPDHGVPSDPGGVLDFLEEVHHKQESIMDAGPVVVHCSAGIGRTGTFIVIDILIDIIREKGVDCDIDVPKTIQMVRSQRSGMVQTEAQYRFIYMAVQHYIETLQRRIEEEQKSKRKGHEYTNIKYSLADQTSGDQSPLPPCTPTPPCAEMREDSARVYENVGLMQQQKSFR
measurement.protocol: Assay of full-length SHP2 phosphatase activity
particulars: DiFMUP substrate, with activating peptide

{"molecule": "CCNC(=O)C#Cc1ccc2c(c1)[C@@H](N)C1(CCN(c3ncc(Sc4ccnc(N)c4Cl)nc3C#N)CC1)C2", "subject.of.test": "Human full-length SHP2 recombinant protein (Homo sapiens (Human), UniProt Q06124)", "IC50": "5 nM"}
{"molecule": "C#Cc1ccc2c(c1)[C@@H](N)C1(CCN(c3cc(=O)n(-c4cccc(C(F)(F)F)c4Cl)c(C)n3)CC1)C2 (atropisomer, axis not shown) [Compound 118]", "subject.of.test": "Human full-length SHP2 recombinant protein (Homo sapiens (Human), UniProt Q06124)", "IC50": "3 nM"}
{"molecule": "Nc1nccc(Sc2cnc(N3CCC4(CC3)Cc3ccc(C#CCO)cc3[C@H]4N)n3ccnc23)c1Cl", "subject.of.test": "Human full-length SHP2 recombinant protein (Homo sapiens (Human), UniProt Q06124)", "IC50": "2 nM"}
